# Test system: optic nerve oligodendrocytes
# method-summary: Oxygen and glucose deprivation (OGD) cell death in oligodendrocyte cultures (calcein-AM)
# Assay type: cell-based, Sprague-Dawley rats
# assay-conditions: 1h OGD, calcein 24h later; PPADS 100 µM, BBG 50 nM, CNQX 30 µM, APV 100 µM, apyrase 20 U/ml, ARL67156 100 µM, CBX 20 µM, FFA 100 µM, MFQ 1 nM
readout-kind: OGD-induced oligodendrocyte cell death

Example entries and their recorded answers appear below.
>  <molecule>
CCOc1ccc(Nc2ccc(C(=C3C=CC(=[N+](CC)Cc4cccc(S(=O)(=O)[O-])c4)C=C3C)c3ccc(N(CC)Cc4cccc(S(=O)(=O)O)c4)cc3C)cc2)cc1

>  <readout-kind>
OGD-induced oligodendrocyte cell death

>  <recorded-measurement>
significantly reduced

$$$$
>  <molecule>
Cc1nc(N=Nc2ccc(S(=O)(=O)O)cc2S(=O)(=O)O)c(COP(=O)(O)O)c(C=O)c1O

>  <readout-kind>
OGD-induced oligodendrocyte cell death

>  <recorded-measurement>
significantly reduced

$$$$
>  <molecule>
O=C(O)c1ccccc1Nc1cccc(C(F)(F)F)c1

>  <readout-kind>
OGD-induced oligodendrocyte cell death

>  <recorded-measurement>
inhibited

$$$$
>  <molecule>
OC(c1cc(C(F)(F)F)nc2c(C(F)(F)F)cccc12)C1CCCCN1 (centres unmarked)

>  <readout-kind>
OGD-induced oligodendrocyte cell death

>  <recorded-measurement>
inhibited

$$$$

State its OGD-induced oligodendrocyte cell death on optic nerve oligodendrocytes: CC1(C)[C@@H](OC(=O)CCC(=O)O)CC[C@]2(C)[C@H]3C(=O)C=C4[C@@H]5C[C@@](C)(C(=O)O)CC[C@]5(C)CC[C@@]4(C)[C@]3(C)CC[C@@H]12
inhibited

The measurements presented in this section are drawn from patent EP2322149A1.
